B1: LINE1-mini (parent)
chain: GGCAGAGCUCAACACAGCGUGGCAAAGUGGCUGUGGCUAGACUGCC

Variants of: B1
assay.summary: self-cleavage, relative activity (ratio to wild type); higher = more cleavage; in vitro, sequencing; the parent is a self-cleaving ribozyme
Kind request: treat 0.1 as inclusive, so self-cleavage at 0.1 or higher is rule met, anything lower is rule not met.

>>> label_class("C10A U34C")
"rule not met"
>>> label_class("C31G G35U")
"rule not met"
>>> label_class("G36A C46U")
"rule met"
>>> label_class("C13G G19A")
"rule met"
>>> label_class("G19U C23A")
"rule met"
>>> label_class("A39U A41U")
"rule met"
>>> label_class("C13G A14C")
"rule not met"
>>> label_class("G1A G7A")
"rule met"
>>> label_class("C3G A12C")
"rule met"
>>> label_class("C15A C31A")
"rule not met"
>>> label_class("C13A U43C")
"rule not met"
>>> label_class("A25C C37U")
"rule not met"
>>> label_class("A24U A26G")
"rule met"
>>> label_class("A14C C45G")
"rule met"
>>> label_class("A12C A14U")
"rule not met"
>>> label_class("A14U G27C")
"rule met"
>>> label_class("U20C G44U")
"rule met"
>>> label_class("C15A U38A")
"rule not met"
>>> label_class("G2A C18A")
"rule met"
>>> label_class("A4C C31U")
"rule not met"
>>> label_class("C45U")
"rule met"
>>> label_class("A26U")
"rule met"

Reference source for all entries: the RNAGym collection of RNA variant scans (doi:10.7554/elife.90254)
